meta.source: ChEMBL document CHEMBL1201862

System: PC-3
Experiment summary: NCI tumour cell line growth inhibition, 48 h
The source made the active and inactive calls. Rule as the data show it: active = GI50 up to about 1.1 µM and inactive = higher.
Outcome (select one): Y = active, N = inactive

// outcome(item) with item = COc1cc2c(cc1OC)C1C=NC(C2)c2cc(OC)c(OC)cc21 (stereo unspecified)
N

Next up: "O=c1cc(-c2ccccc2)[nH]c2ccc(N3CCCC3)cc12"
Y

Next up: "CCOc1cc(-c2nc3ccccn3c2/N=C/c2cc(Br)ccc2O)ccc1O"
N

Next up: "CCN(CC)CCNc1nc(N)c(C#N)c(C#N)c1C#N"
N

Next up: O=C(O)c1ccc(C2SCc3nc4ccccc4n32)cc1 (stereo unspecified)
N

Next up: "O=c1c2c3c(sc2nc2n1sc1nc4sc5c(c4c(=O)n12)CCCC5)CCCC3"
N

---

Test system: KM12
Experiment summary: NCI tumour cell line growth inhibition, 48 h
Activity calls are given as the source filed them. Rule as the data show it: active = GI50 up to about 1.1 µM and inactive = higher.
Outcome (select one): YES (active), NO (inactive)

// outcome(item) with item = CC1CC(N2CCOCC2)=Nc2ccccc2N1C (configuration not stated)
NO

Next up: "Cc1cc2c(=O)c3ccc(Cl)cc3[nH]c2c(C(N)=O)c1C"
NO

Next up: "Cc1cc(C)nc(NS(=O)(=O)c2ccc(Nc3c4ccccc4nc4c(C(=O)N5CCN(CCO)CC5)cccc34)cc2)n1"
NO

Next up: "COc1ccc2[nH]cc(CN3CCC(CO)(c4ccccc4)CC3)c2c1"
NO

Next up: "COC(=O)c1cnn2c1ccc1ccccc12"
NO

Next up: "CCN(CC)/[N+]([O-])=N/OS(=O)(=O)N(C)C"
NO

Next up: CCCCCCCCCCCCCCCC(=O)OCC(O)C1OC(=O)C(O)=C1O (configuration not stated)
NO

Next up: CC(C)C(C/C=C1\CC(CO)(COC(=O)C2CCCCC2)OC1=O)C(C)C (configuration not stated)
NO

Next up: "Cc1c(N2CCOCC2)nc2ccc(Cl)cc2c1-c1ccccc1"
NO

Next up: "CCOc1ccc2nc(NC(NC(=O)c3cccnc3)(C(F)(F)F)C(F)(F)F)sc2c1"
NO

Next up: "COc1ccc(/C=C/c2cc(OC)cc(=O)o2)cc1"
NO

Next up: "CC1=[N+]([O-])C2(CCCC2)N(O)C1(C)C"
NO

Next up: CC(C)N(C(=O)C12C3C4C1C1C4(C#N)C3C12C(=O)O)C(C)C (configuration not stated)
NO

Next up: CCSCCCCC(c1ccc(O)cc1)C(C)(CC)c1ccc(O)cc1 (configuration not stated)
NO

Next up: CC(=O)NC1C(OCc2ccccc2)OC(CO)C(O)C1OCC(=O)NC(C)C(=O)NC(CCC(=O)Nc1ccc2c(c1)CN1C(=O)c3ccccc3C1=N2)C(N)=O (configuration not stated)
NO

Next up: "O=C(O)/C=C/n1c2ccccc2c(=O)c2ccccc21"
NO

Next up: "O=C(O)CP(=O)(O)O"
NO

Next up: "Cc1ccc([N+](=O)[O-])c2c(NCCNC(=O)Cn3ccnc3[N+](=O)[O-])ccnc12"
NO

Next up: CCOC(=O)N[C@@H]1C(CC(=O)OC)O[C@H]2OC(C)(C)O[C@H]21 (some centres not stated)
NO

Next up: "O=C(c1cc2ccccc2cc1O)N1CCCCC1"
NO

Next up: "O=[N+]([O-])c1cccc2nc3ccccc3c(NCCc3cccc[n+]3[O-])c12"
YES

Next up: O=c1ncc(F)cn1C1OC(CO)C(O)C1O (configuration not stated)
NO

---

Tested on: LOX IMVI
Experiment summary: NCI tumour cell line growth inhibition, 48 h
The source made the active and inactive calls. Cut-off read from the data, not from the text of the source: active = GI50 up to about 1.1 µM and inactive = higher. Square brackets hold non-standard residues; d marks the D form. Peptide text beside a SMILES is read from it. * marks the point of attachment. ξ: configuration not given here. ξF = NC(Cc1ccccc1)C(=O)O; Cbz = O=C(OCc1ccccc1)*; Aib = CC(C)(N)C(=O)O
Outcome (select one): active, inactive

// outcome(item) with item = O=C1CN2C(Cl)(Cl)C2(c2ccccc2)c2cc(Cl)ccc2N1CC(F)(F)F (stereo unspecified)
inactive

Next up: CN1C2CCC1C(CO)C(=O)C2 (stereo unspecified)
inactive

Next up: COc1cc(C2c3cc4c(cc3[C@@H](NCCN3CCCCC3)C3COC(=O)[C@H]23)OCO4)cc(OC)c1O (stereo partly specified)
active

Next up: c1ccc(CSSSCc2ccccc2)cc1 [DIBENZYL TRISULFIDE]
active

Next up: O=C(C/C(=N/O)C(=O)NC1=C(Cl)C(=O)c2ccccc2C1=O)CC(c1ccccc1)c1c(O)c2ccccc2oc1=O (stereo unspecified)
inactive

Next up: "CCOC(=O)Cn1nc2ccc(Nc3nc4ccccc4nc3C(=O)OCC)cc2n1"
inactive

Next up: CC(C)(NC(=O)OCc1ccccc1)C(=O)NC(Cc1ccccc1)C(=O)O (stereo unspecified) (Cbz-[Aib]-[ξF]-OH)
inactive

Next up: [O-][S+]1c2ccccc2N=C(c2ccc3ccccc3c2)CC1c1ccccc1 (stereo unspecified)
inactive

Next up: C[C@]12CC[C@H]3[C@@H](CC[C@]4(O)C[C@@H](O)CC[C@]34C=O)[C@@]1(O)CC[C@@H]2C1=CC(=O)OC1 [STROPHANTHIDIN]
active

Next up: "Cc1ccccc1Nc1nc(NNC(=O)Cc2ccccc2)nc(NNC(=O)c2ccncc2)n1"
inactive

Next up: "CN1C(=O)c2cccc3c([N+](=O)[O-])ccc(c23)C1=O"
inactive

Next up: "CCN(CC)/[N+]([O-])=N/OS(=O)(=O)N(C)C"
inactive

Next up: "O=c1cc(-c2ccccc2)[nH]c2ccc(N3CCCC3)cc12"
active

Next up: "CC(=O)OI1NC(=O)c2ccccc21"
inactive

Next up: COc1ccccc1C(=O)OCC1CCCN2CCCCC12 (stereo unspecified)
inactive

Next up: "O=S1(=O)C[C@@H](NCc2ccccc2)[C@H](NCc2ccccc2)C1"
inactive

Next up: "O=C1CCCNn2c(nc3ncccc3c2=O)N1"
inactive

Next up: O=C(O)C12CCC(CC1=O)C2 (stereo unspecified)
inactive

Next up: C[C@@H]([C@H]1CC[C@@]2(C)[C@@H]3CC[C@@H]4C(=CC3=CC[C@]12C)CC[C@H](N(C)C)C4(C)C)N(C)C [BUXAMINE A]
inactive

Next up: "O=C(O)/C=C/n1c2ccccc2c(=O)c2ccccc21"
inactive

Next up: "Cn1c2c(c3c(=O)[nH]ncc31)CCc1ccccc1-2"
inactive

---

System: LOX IMVI
Experiment summary: NCI tumour cell line growth inhibition, 48 h
Activity calls are given as the source filed them. Cut-off read from the data, not from the text of the source: active = GI50 up to about 1.1 µM and inactive = higher.
Outcome (select one): 1 for active, 0 for inactive

// outcome(item) with item = "NCc1ccccc1.O=C(O)NCc1ccccc1"
0

Next up: "CCSC1=CC(=O)c2nc3ccccc3c3ccnc1c23"
0

Next up: CC12CCC([C@H](Nc3cc(C(F)(F)F)cc(C(F)(F)F)c3)C1=O)C2(C)C (stereo not given in full)
0

Next up: CCCCN(CCCC)CC(C(=O)Nc1ccc([N+](=O)[O-])cc1[N+](=O)[O-])/C(C)=N\NC(=S)NN (stereo not given)
0

Next up: "O=[N+]([O-])c1cccc2nc3ccccc3c(NCCc3cccc[n+]3[O-])c12"
1

---

Tested on: SK-MEL-5
Experiment summary: NCI tumour cell line growth inhibition, 48 h
Calls of active or inactive are those of the source. Rule as the data show it: active = GI50 up to about 1.1 µM and inactive = higher. Square brackets hold non-standard residues; d marks the D form. Peptide text beside a SMILES is read from it. * marks the point of attachment. NMeV = CN[C@H](C(=O)O)C(C)C; X28 = COc1ccc(CN*)c(OC)c1; Octanoyl = CCCCCCCC(=O)*; dNMeA = CN[C@H](C)C(=O)O
Measured parameter: GI50

What does the data say about its GI50? Entry: "Cc1nc(-c2ccc(Cl)cc2)cn2c1nc1ccccc12"
5.14 µM (inactive)

Next up: O=C1O[B-](c2ccccc2)(c2ccccc2)[NH2+]C1CS (stereo not drawn)
55 µM (inactive)

Next up: Cc1cn(C2CC(O)C(CO[Si](C)(C)C(C)(C)C)OC2OC(C)C)c(=O)[nH]c1=O (stereo not drawn)
32.7 µM (inactive)

Next up: CCCCCCCC(=O)N[C@H](C(=O)N[C@H](C(=O)N(C)[C@H](C(=O)N1CCC[C@H]1C(=O)N(C)[C@H](C)C(=O)NCc1ccc(OC)cc1OC)C(C)C)C(C)C)C(C)C (Octanoyl-VV[NMeV]P[dNMeA]-X28)
3.3 µM (inactive)

Next up: COC1=CC(=O)C2C(C1=O)[C@@H]1c3ccccc3OC(C)(C)[C@H]21 (stereo partly drawn)
27.4 µM (inactive)

Next up: COC(=O)C1=C(C)NC2=C(C(=O)c3ccccc32)C1c1c[nH]nc1-c1ccccc1 (stereo not drawn)
31.8 µM (inactive)

Next up: "Cc1ccc(CC(=O)Nc2ccc(NC(=O)CNC(=O)/C=C/c3ccc(-c4ccccc4)cc3)cc2C(=O)c2ccccc2)cc1"
1.69 µM (inactive)

Next up: O=C(CC1C(=O)Nc2ccccc2S1(=O)=O)Nc1cccc(Cl)c1 (stereo not drawn)
19.1 µM (inactive)
